- Assayed System: Cat-S in human purified B-cells (Homo sapiens, UniProt P25774)
- Construct: Human B-cells were isolated from whole blood; endogenous in cells; host or cells: primary human CD19+ B cells from whole blood of healthy volunteers
- Sequence (P25774 115-331): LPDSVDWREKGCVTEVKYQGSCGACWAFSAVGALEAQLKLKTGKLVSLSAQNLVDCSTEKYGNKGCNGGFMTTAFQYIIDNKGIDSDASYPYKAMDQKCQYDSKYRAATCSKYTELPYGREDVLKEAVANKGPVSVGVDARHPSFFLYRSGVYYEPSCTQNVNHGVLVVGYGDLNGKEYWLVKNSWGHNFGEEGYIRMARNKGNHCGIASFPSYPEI
- Test: lip10 (p10) accumulation assay in human purified B-cells (p10 ELISA)
- Assay type: cell-based
- Condition Context: donor D3; read-out: EC50 of p10 upregulation in human B-cells, donor D3
Measurement Name: pEC50
Answers are plain numbers, as −log10 of the molar value.

Prompt line: Entry Cn1cc(-c2ccc(S(=O)(=O)[C@@H]3C[C@@H](C(=O)NC4(C#N)CC4)N(C(=O)C4(C(F)(F)F)CC4)C3)c(C(F)(F)F)c2)cn1 [RO5459072] : reported pEC50 = ?
Response line: 7.72

* * *

- Assayed System: Human Cat-V (Homo sapiens, UniProt O60911)
- Sequence (O60911 114-334): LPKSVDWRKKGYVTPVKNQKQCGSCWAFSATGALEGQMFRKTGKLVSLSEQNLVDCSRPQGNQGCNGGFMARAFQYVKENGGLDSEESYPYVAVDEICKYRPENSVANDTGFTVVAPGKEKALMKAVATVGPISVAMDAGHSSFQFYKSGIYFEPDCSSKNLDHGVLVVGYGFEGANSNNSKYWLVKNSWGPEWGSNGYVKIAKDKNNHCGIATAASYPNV
- Test: Enzymatic isoform-selectivity assay, Cat-V
- Condition Context: read-out: apparent IC50, Cat V
Measurement Name: pIC50
Answers are plain numbers, as −log10 of the molar value.

Prompt line: Entry Cn1cc(-c2ccc(S(=O)(=O)[C@@H]3C[C@@H](C(=O)NC4(C#N)CC4)N(C(=O)C4(C(F)(F)F)CC4)C3)c(C(F)(F)F)c2)cn1 [RO5459072] : reported pIC50 = ?
Response line: 6.15

* * *

- Assayed System: Cat-S in human purified B-cells (Homo sapiens)
- Construct: Human B-cells were isolated from whole blood; endogenous in cells; host or cells: primary human CD19+ B cells from whole blood of healthy volunteers
- Test: lip10 (p10) accumulation assay in human purified B-cells (p10 ELISA)
- Assay type: cell-based
- Condition Context: donor D1; read-out: EC50 of p10 upregulation in human B-cells, donor D1
Measurement Name: EC50 (µM)
Answers are plain numbers, in µM.

Prompt line: Entry Cn1cc(-c2ccc(S(=O)(=O)[C@@H]3C[C@@H](C(=O)NC4(C#N)CC4)N(C(=O)C4(C(F)(F)F)CC4)C3)c(C(F)(F)F)c2)cn1 : reported EC50 = ?
Response line: 0.0264

* * *

- Assayed System: Cat-S in human purified B-cells (Homo sapiens)
- Construct: Human B-cells were isolated from whole blood; endogenous in cells; host or cells: primary human CD19+ B cells from whole blood of healthy volunteers
- Test: lip10 (p10) accumulation assay in human purified B-cells (p10 ELISA)
- Type: cell-based
- Condition Context: donor D5; read-out: EC50 of p10 upregulation in human B-cells, donor D5
Measurement Name: pEC50
Give bare numbers, as −log10 of the molar value.

Prompt line: Entry Cn1cc(-c2ccc(S(=O)(=O)[C@@H]3C[C@@H](C(=O)NC4(C#N)CC4)N(C(=O)C4(C(F)(F)F)CC4)C3)c(C(F)(F)F)c2)cn1 [RO5459072] : reported pEC50 = ?
Response line: 7.90

* * *

- Assayed System: Cat-S in human purified B-cells (Homo sapiens, UniProt P25774)
- Construct: Human B-cells were isolated from whole blood; endogenous in cells; host or cells: primary human CD19+ B cells from whole blood of healthy volunteers
- Test: lip10 (p10) accumulation assay in human purified B-cells (p10 ELISA)
- Type: cell-based
- Condition Context: donor D6; read-out: EC50 of p10 upregulation in human B-cells, donor D6
Measurement Name: EC50
Answer by giving the amount and then stating its unit.

Prompt line: Entry Cn1cc(-c2ccc(S(=O)(=O)[C@@H]3C[C@@H](C(=O)NC4(C#N)CC4)N(C(=O)C4(C(F)(F)F)CC4)C3)c(C(F)(F)F)c2)cn1 : reported EC50 = ?
Response line: 0.0115 µM

Source: paper PMC5459853
